System: SK-MEL-5
assayNotes: NCI tumour cell line growth inhibition, 48 h
Activity calls are given as the source filed them. Cut-off read from the data, not from the text of the source: active = GI50 up to about 1.1 µM and inactive = higher. Peptide text beside a SMILES is read from it. * marks the point of attachment. Boc = CC(C)(C)OC(=O)*; OBn = c1ccc(CO*)cc1

| molecule | experimentalSystem | GI50 |
| --- | --- | --- |
| CC(C)CC(NC(=O)OC(C)(C)C)C(=O)NC(CC(=O)OCc1ccccc1)C(N)=O (stereo not drawn) (Boc-Leu-Asp(OBn)-NH2; configuration not given here) | SK-MEL-5 | > 100 µM (inactive) |
| COC(=O)C1CC(C(=O)OC)c2nc3cc(C)c(C)cc3nc21 (stereo unspecified) | SK-MEL-5 | > 100 µM (inactive) |
| O=C1CCC2(c3ccccc3)OCC([C@@H](O)c3ccccc3)N12 (stereo partly specified) | SK-MEL-5 | > 100 µM (inactive) |
| CC1(C)OCC(COC(=O)C=[N+]=[N-])O1 (stereo unspecified) | SK-MEL-5 | > 100 µM (inactive) |
| COc1cc2ncnc(NS(=O)(=O)c3cc4ccccc4s3)c2cc1OC | SK-MEL-5 | > 100 µM (inactive) |
| O=C(CC(=O)N1N=C(N2CCCCC2)CC1c1ccccc1)Nc1ccccc1 (stereo unspecified) | SK-MEL-5 | > 100 µM (inactive) |
